B1: Hairpin Ribozyme (parent)
chain: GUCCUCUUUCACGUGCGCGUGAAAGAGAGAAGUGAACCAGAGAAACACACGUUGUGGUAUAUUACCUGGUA

Variants of: B1
Test: self-cleavage, relative activity (ratio to wild type); higher = more cleavage; co-transcriptional
Cut-off 0.4 on self-cleavage, inclusive. At or above means TRUE; below means FALSE.

Take a look at these entries with their results.
{"columns": ["MUTANT_LABEL", "CLASS_LABEL"],
 "data": [
  ["A59G U67C", "FALSE"],
  ["U58A G68U", "FALSE"],
  ["C18U A44U", "FALSE"],
  ["U5G G19U", "FALSE"],
  ["A22C A61G", "FALSE"]
]}

Task: Has A64U G68A a recorded self-cleavage greater than or equal to 0.4?
Output: FALSE

Task: Has G15U G29U a recorded self-cleavage greater than or equal to 0.4?
Output: FALSE

Task: Has G51U U58G a recorded self-cleavage greater than or equal to 0.4?
Output: TRUE

Task: Has C12G G13C a recorded self-cleavage greater than or equal to 0.4?
Output: TRUE

Source: the RNAGym collection of RNA variant scans (doi:10.7554/elife.80360)
